For each record, write down the corresponding Kd.
molecular target: T1, human transferrin receptor 1 (human, UniProt P02786 89-760, limits assumed); test: Carterra LSA SPR array, IgG captured on anti-IgG lawn, hTfR1 as analyte, 25 C, 1:1 Langmuir fit
T1 construct: also called hTfR1; huTfR1
T1 sequence (P02786 89-760 limits assumed): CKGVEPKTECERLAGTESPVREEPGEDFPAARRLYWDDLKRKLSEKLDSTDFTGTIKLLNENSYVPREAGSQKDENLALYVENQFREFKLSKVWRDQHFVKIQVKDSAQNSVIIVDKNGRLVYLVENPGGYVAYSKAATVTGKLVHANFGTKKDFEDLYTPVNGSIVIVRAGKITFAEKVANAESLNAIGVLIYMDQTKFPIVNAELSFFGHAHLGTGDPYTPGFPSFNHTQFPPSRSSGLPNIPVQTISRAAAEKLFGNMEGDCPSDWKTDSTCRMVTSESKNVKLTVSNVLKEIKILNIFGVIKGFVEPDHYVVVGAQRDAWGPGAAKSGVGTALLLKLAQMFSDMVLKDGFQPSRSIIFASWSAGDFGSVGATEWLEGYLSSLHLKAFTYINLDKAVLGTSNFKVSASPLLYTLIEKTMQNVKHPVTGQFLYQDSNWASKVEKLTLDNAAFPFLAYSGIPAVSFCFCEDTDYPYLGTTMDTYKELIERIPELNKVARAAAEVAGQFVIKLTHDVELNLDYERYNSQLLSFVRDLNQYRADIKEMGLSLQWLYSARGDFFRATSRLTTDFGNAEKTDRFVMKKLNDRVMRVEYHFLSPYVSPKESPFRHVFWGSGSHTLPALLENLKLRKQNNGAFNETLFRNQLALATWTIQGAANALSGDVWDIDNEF
Numbers only, in nM.

| binder | Kd, nM |
| --- | --- |
| 3-A4 (antibody, V domains shown, Tested as a mouse monoclonal IgG; also called 3-A04) VH: EVQLQQSGAELVRPGASVKLSCTASGFNIKDDYMYWVKQRPEQGLEWIGWIDPENGDTEYASKFQDKATVTADTSSNTAYLQLSSLTSEDTAVYYCTLWLRRGLDYWGQGTSVTVSS VL: DIVMTQAAPSVPVTPGESVSISCRSSKSLLHSNGYTYLFWFLQRPGQSPQLLIYRMSNLASGVPDRFSGSGSGTAFTLRISRVEAEDVGVYYCMQHLEYPFTFGGGTKLEIK | 0.436 |

Below: the item to evaluate.
QUERY: Given 8-O17 (antibody, V domains shown, Tested as a mouse monoclonal IgG) VH: QVQLKESGPGLVAPSQSLSITCTVSGFSLTNYGVHWVRQPPGKGLEWLVVIWNDGSATYNSALESRLSISKDNSKSQVFLKMNSLQTDDTAMYYCARHESSNPFAYWGQGTLVTVSA VL: DILLTQSPAILSVSPGERVSFSCRASQSIGTSIHWYQQRTNGSPRLLIKSASESIAGIPSRFSGSGSGTDFTLSINSVESEDIADYYCQQNNRWPYTFGGGTKLEIK , state its recorded Kd.
RESULT: 1.83
